Source: ChEMBL document CHEMBL1201862

# protocol.description: Luminescence Cell-Based Dose Retest to Confirm Inhibitors of Cancer Stem Cells. [Related pubchem assays (depositor defined):AID2717, AID2721];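 further: cells exposed to compound for roughly 70 hours or longer before luminescence read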
# Format: functional
# test.parameters: Homo sapiens
Calls of active or inactive are those of the source. No stated cut-off is given here; in the data, actives have a measured AC50 and inactives only a lower limit.
// reported AC50 per item
parameter.measured: AC50

> print(dat)
                              record.smiles  parameter.measured             result
1  COc1ccc(O)c(/C=N/Nc2nc(Nc3ccccc3)nc(-n3nc(C)cc3C)n2)c1                AC50   4.75 µM (active)
2  O=C(Nc1ccccc1)C1=C[C@@H](c2ccc(C(F)(F)F)cc2)C[C@@H](OCc2ccc(CO)cc2)O1                AC50    5.5 µM (active)
3  c1ccc(CN2CCN(c3nc(NCc4ccco4)c4ccccc4n3)CC2)cc1                AC50   3.34 µM (active)
4  COc1cc(/C=C2/CCC/C(=C\c3cc(O)c(OC)c(Cl)c3)C2=O)cc(Cl)c1O                AC50  0.629 µM (active)
5  CCCOc1ccc(C(=O)N2CCN(c3ccc(N)cc3Cl)CC2)cc1                AC50   10.1 µM (active)
6     Cc1ccc(-c2nc(NCc3ccco3)c3ccccc3n2)cc1                AC50   9.72 µM (active)
